# Test system: DeltatarO mutant
# Experiment summary: S. aureus survival, RN4220 and DeltatarO strains – OD600, teichoic acid synthesis inhibitors, primary screen (AID 463173)
# Recorded conditions: S. aureus RN4220 wild type/DeltatarO growth, OD600, 18 h, screened at 18.75 µg/mL (by protocol)
Out of some 52,000 compounds screened, about 4,300 (8.3%) were called active. Rule as the data show it: active = survival mostly below about 52% (no sharp cut-off); inactive = mostly above about 56%. The sample holds actives, similar compounds and a random draw of the others, so the mix is not that of the screen.
In this exercise, the only acceptable responses are active, inactive

>>> category_label("CN1CCc2nc3sc(C(=O)Nc4ccccc4C(F)(F)F)c(N)c3cc2C1")
"inactive"
>>> category_label("CC(Oc1ccc(F)cc1)C(=O)Nc1nc(-c2ccc(F)cc2)ns1 (stereo not given)")
"active"
>>> category_label("CCC(Oc1ccc(F)cc1)C(=O)Nc1nc(-c2ccc(F)cc2)ns1 (stereo not given)")
"active"
>>> category_label("Cc1cc(C)cc(OCC(=O)Nc2nc(-c3ccc(F)cc3)ns2)c1")
"inactive"

Given Cc1ccc(NC(=O)Cn2nnc3sc(-c4ccccc4)cc3c2=O)cc1Cl , state the outcome it received in this test.
inactive

Given CSc1cccc(NC(=O)C2CCN(C(=O)c3cnn(-c4ccccc4)c3-n3cccc3)CC2)c1 , state the outcome it received in this test.
inactive

Given O=C(COc1ccccc1Cl)Nc1nc(-c2ccc(F)cc2)ns1 , state the outcome it received in this test.
inactive

Given CCC(Oc1ccc(F)cc1)C(=O)Nc1nc2c(s1)CCCC2 (stereo not given) , state the outcome it received in this test.
inactive

Given COc1ccc(-c2nsc(NC(=O)c3oc4cc(C)c(C)cc4c3C)n2)cc1 , state the outcome it received in this test.
inactive

Given CCc1ccc(CNC(=O)c2ccc3nc(SCc4ccc(F)cc4)n(C)c3c2)cc1 , state the outcome it received in this test.
inactive

----------
# Test system: DeltatarO mutant
# Experiment summary: S. aureus survival, RN4220 and DeltatarO strains – OD600, teichoic acid synthesis inhibitors, primary screen (AID 463173)
# Recorded conditions: S. aureus RN4220 wild type/DeltatarO growth, OD600, 18 h, stronger effect = lower value, screened at 18.75 µg/mL (by protocol)
Among all 52,000 compounds or so, about 4,300 (8.3%) were called active. Shown is part of a subset that was picked to be rich in actives.
Class (required): determined from survival; valid ranges are low: < 60%; medium: ≥ 60% and < 80%; high: ≥ 80%

>>> category_label("Cc1ccccc1NC(=O)c1c(C)oc2ccc(O)c(CN3CCCCCC3)c12")
"high"
>>> category_label("Cc1ccc2scc(N3CCc4ccccc4C3)c(=O)c2c1")
"medium"
>>> category_label("CCOC(=O)c1c(C)[nH]c(CCC(=O)Nc2cc(Cl)ccc2OC)c1C")
"high"
>>> category_label("O=C(O)CCc1nnc2cnc3ccccc3n12")
"high"
>>> category_label("O=C(CCn1c(=O)c2cccn2c2ccc(F)cc21)NCCc1ccc(Cl)cc1")
"low"

Which category fits this record: COc1ccc(-c2nc3nc(C)cc(Nc4ccc(C(C)=O)cc4)n3n2)cc1
low

----------
# Tested on: DeltatarO mutant
# Experiment summary: S. aureus survival, RN4220 and DeltatarO strains – OD600, teichoic acid synthesis inhibitors, primary screen (AID 463173)
# Recorded conditions: S. aureus RN4220 wild type/DeltatarO growth, OD600, 18 h, stronger effect = lower value, screened at 18.75 µg/mL (by protocol)
Among all 52,000 compounds or so, about 4,300 (8.3%) were called active. The sample as a whole holds a higher share of actives than the screen did.
Value type: survival (%)
Value expressed in %; do not type the unit.

For orientation, consider the following solved cases.
>>> reported_value("Cc1ccccc1NC(=O)Cn1c(SCC(=O)Nc2ccc(F)cc2)nc2ccccc21")
95
>>> reported_value("Clc1ccc(NCCC2=CCCCC2)nn1")
84
>>> reported_value("CC(=O)c1cccc(NS(=O)(=O)c2cccc(S(=O)(=O)c3ccc(Br)cc3)c2)c1")
55
>>> reported_value("CCc1cccc(C)c1NC(=O)Cn1ncc2c3ccccc3n(Cc3ccccc3)c2c1=O")
86

# molecule COc1cccc(NC(=O)CSc2cc(C)c3ccccc3n2)c1 ; its survival = 72

# molecule Cc1ccc(C)c(NC(=O)C(NS(=O)(=O)c2ccc3c(c2)CCC(=O)N3)c2ccccc2)c1 (stereo unspecified) ; its survival = 113
